Values compiled from BindingDB's records for patent US10010539.

# Assayed System: UniProtKB O43614
# Sequence (O43614 whole entry): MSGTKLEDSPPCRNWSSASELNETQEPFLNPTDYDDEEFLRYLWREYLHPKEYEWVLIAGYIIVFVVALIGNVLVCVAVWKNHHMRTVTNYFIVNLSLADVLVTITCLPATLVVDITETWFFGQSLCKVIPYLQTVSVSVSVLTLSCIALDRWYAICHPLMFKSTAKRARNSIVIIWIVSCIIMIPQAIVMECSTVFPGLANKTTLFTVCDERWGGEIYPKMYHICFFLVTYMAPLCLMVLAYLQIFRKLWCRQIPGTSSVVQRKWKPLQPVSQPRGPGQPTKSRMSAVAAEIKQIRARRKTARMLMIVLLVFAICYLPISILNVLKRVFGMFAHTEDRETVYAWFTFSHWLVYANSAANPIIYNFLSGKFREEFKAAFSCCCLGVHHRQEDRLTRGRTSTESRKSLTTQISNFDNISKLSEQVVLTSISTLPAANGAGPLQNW
# Measurement Notes: FLIPR Ca2+ Flux Assay
pIC50: −log10 of the molar value.
Overview of recorded pIC50 for various molecules
Measurement Type: pIC50

* CC(C)Oc1ncccc1C(=O)N1C[C@H](n2ncc(C(C)(C)O)n2)CC[C@H]1C | 7.49
* CCOc1ccccc1C(=O)N1C[C@H](n2ncc(C(C)(C)O)n2)CC[C@H]1C | 7.50
